Target: BTK (Homo sapiens (Human))
Sequence (Q06187 whole entry): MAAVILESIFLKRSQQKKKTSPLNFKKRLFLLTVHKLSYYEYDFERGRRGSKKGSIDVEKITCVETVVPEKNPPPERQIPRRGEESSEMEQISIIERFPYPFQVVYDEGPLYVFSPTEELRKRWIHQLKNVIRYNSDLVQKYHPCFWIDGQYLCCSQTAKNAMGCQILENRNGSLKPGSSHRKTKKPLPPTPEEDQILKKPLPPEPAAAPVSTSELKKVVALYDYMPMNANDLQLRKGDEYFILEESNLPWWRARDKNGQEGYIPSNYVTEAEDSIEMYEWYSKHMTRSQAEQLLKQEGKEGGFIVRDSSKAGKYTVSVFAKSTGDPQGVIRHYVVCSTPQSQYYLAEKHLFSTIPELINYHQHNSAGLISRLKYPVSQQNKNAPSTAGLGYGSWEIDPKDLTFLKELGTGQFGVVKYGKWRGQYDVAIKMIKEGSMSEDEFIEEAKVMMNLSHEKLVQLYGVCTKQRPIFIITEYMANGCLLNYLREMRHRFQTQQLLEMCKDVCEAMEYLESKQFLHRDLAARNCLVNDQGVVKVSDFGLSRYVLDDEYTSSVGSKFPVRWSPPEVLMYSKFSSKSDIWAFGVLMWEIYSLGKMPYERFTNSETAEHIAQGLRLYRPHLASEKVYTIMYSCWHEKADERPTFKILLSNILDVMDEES
Assay: Z'-LYTE kinase inhibition assay against BTK
Format: biochemical
Details: compound at 100 nM; ATP concentration at Km
endpoint: inhibition at 0.1 µM

(Q) Identify inhibition at 0.1 µM associated with the compound C=CC(=O)N1CCC(c2cc(-c3ccc(Oc4cccc(F)c4)nc3)cc3cncnc23)C1 (centres unmarked)
(A) < 50%

(Q) Identify inhibition at 0.1 µM associated with the compound `C=CC(=O)Nc1cccc(-c2cc(-c3ccc(Oc4ccccn4)cc3OC)cc3cnc(N)nc23)c1`
(A) > 50%

(Q) Identify inhibition at 0.1 µM associated with the compound `C=CC(=O)Nc1cccc(-c2cc(-c3ccc(Oc4ccccn4)cc3F)cc3cncnc23)c1`
(A) > 50%

(Q) Identify inhibition at 0.1 µM associated with the compound `C=CC(=O)Nc1cccc(-c2cc(-c3ccc(C(=O)Nc4cccc(C(F)(F)F)c4)nc3)cc3cncnc23)c1`
(A) > 50%

(Q) Identify inhibition at 0.1 µM associated with the compound `C=CC(=O)Nc1cccc(-c2cc(-c3cccnc3)cc3cnc(Nc4ccccc4)nc23)c1`
(A) > 50%

(Q) Identify inhibition at 0.1 µM associated with the compound C=CC(=O)N1CCC(c2nc(-c3ccc(Oc4cc(C(F)(F)F)ccn4)c(OC)c3)n3c(N)nccc23)C1 (centres unmarked)
(A) > 50%

(Q) Identify inhibition at 0.1 µM associated with the compound `C=CC(=O)Nc1cccc(-c2cc(-c3ccc(Nc4ccccc4)cc3)cc3cncnc23)c1`
(A) < 50%

(Q) Identify inhibition at 0.1 µM associated with the compound `C=CC(=O)Nc1cccc(-c2cc(-c3ccc(Oc4cccc(F)c4)nc3)cc3cncnc23)c1`
(A) > 50%

(Q) Identify inhibition at 0.1 µM associated with the compound C=CC(=O)N1CCC(c2cc(-c3ccc(C(=O)Nc4cc(OC)ccn4)cc3)n3cnccc23)C1 (centres unmarked)
(A) < 50%

(Q) Identify inhibition at 0.1 µM associated with the compound C=CC(=O)N1CCC(c2cc(-c3ccc(C(=O)Nc4cc(Cl)ccn4)cc3)n3cnccc23)C1 (centres unmarked)
(A) > 50%

(Q) Identify inhibition at 0.1 µM associated with the compound `C=CC(=O)Nc1cccc(-c2cc(-c3ccc(Oc4cc(C5CC5)ccn4)cc3F)cc3cncnc23)c1`
(A) > 50%

(Q) Identify inhibition at 0.1 µM associated with the compound `C=CC(=O)Nc1cccc(-c2cc(-c3ccc(Oc4cc(C#N)ccn4)cc3F)cc3cncnc23)c1`
(A) > 50%

(Q) Identify inhibition at 0.1 µM associated with the compound C=CC(=O)N1CCC(c2cc(-c3ccc(C(=O)Nc4cc(C(F)(F)F)ccn4)cc3F)n3cnccc23)C1 (centres unmarked)
(A) < 50%

(Q) Identify inhibition at 0.1 µM associated with the compound C=CC(=O)N1CCC(c2nc(-c3ccc(Oc4ncccc4C#N)cc3)n3c(N)nccc23)C1 (centres unmarked)
(A) > 50%

(Q) Identify inhibition at 0.1 µM associated with the compound `C=CC(=O)Nc1cccc(-c2cc(-c3ccc(Oc4cc(C(F)(F)F)ccn4)cc3)c(N)c3cncnc23)c1`
(A) < 50%

(Q) Identify inhibition at 0.1 µM associated with the compound `C=CC(=O)Nc1cccc(-c2cc(-c3ccc(C(=O)Nc4cc(C(F)(F)F)ccn4)cc3Cl)cc3cncnc23)c1`
(A) > 50%

(Q) Identify inhibition at 0.1 µM associated with the compound `C=CC(=O)Nc1cccc(-c2cc(-c3ccc(C(=O)Nc4cc(C(N)=O)ccn4)cc3Cl)cc3cncnc23)c1`
(A) > 50%

(Q) Identify inhibition at 0.1 µM associated with the compound `C=CC(=O)Nc1cccc(-c2cc(-c3ccc(C(=O)Nc4cccnc4)cc3)cc3cncnc23)c1`
(A) < 50%

(Q) Identify inhibition at 0.1 µM associated with the compound C=CC(=O)N1CCCC(c2cc(-c3ccc(C)nc3)cc3cnc(N)nc23)C1 (centres unmarked)
(A) < 50%

(Q) Identify inhibition at 0.1 µM associated with the compound C=CC(=O)N1CCCC(c2cc(-c3cccc(Nc4cccc(C(F)(F)F)c4)c3)cc3cncnc23)C1 (centres unmarked)
(A) < 50%

(Q) Identify inhibition at 0.1 µM associated with the compound C=CC(=O)N1CCC(c2cc(-c3ccc(C(=O)Nc4cccc(C(F)(F)F)c4)cc3)cc3cncnc23)C1 (centres unmarked)
(A) < 50%

(Q) Identify inhibition at 0.1 µM associated with the compound C=CC(=O)N1CCC(c2ccc(-c3ccc(C(=O)Nc4ccccn4)cc3)c3cncnc23)C1 (centres unmarked)
(A) < 50%

(Q) Identify inhibition at 0.1 µM associated with the compound `C=CC(=O)Nc1cccc(-c2cc(-c3ccc(Oc4ccccn4)cc3Cl)c(N)c3cncnc23)c1`
(A) > 50%

(Q) Identify inhibition at 0.1 µM associated with the compound C=CC(=O)N1CCC(c2cc(-c3ccc(C(=O)Nc4cc(C5CC5)ccn4)cc3)cc3cncnc23)C1 (centres unmarked)
(A) > 50%

(Q) Identify inhibition at 0.1 µM associated with the compound C=CC(=O)N1CCC(c2nc(-c3ccc(C(=O)Nc4cc(C5CC5)ccn4)cc3)n3c(N)ncnc23)C1 (centres unmarked)
(A) > 50%

(Q) Identify inhibition at 0.1 µM associated with the compound `C=CC(=O)Nc1cccc(-c2cc(-c3ccc(Oc4ccccc4F)nc3)cc3cncnc23)c1`
(A) > 50%

(Q) Identify inhibition at 0.1 µM associated with the compound `C=CC(=O)Nc1cccc(-c2cc(-c3ccc(C(=O)Nc4cccc(C(F)(F)F)c4)cc3)cc3cncnc23)c1`
(A) > 50%

(Q) Identify inhibition at 0.1 µM associated with the compound `C=CC(=O)Nc1cccc(-c2cc(-c3ccc(C(=O)Nc4cc(C)ccn4)cc3)cc3cnc(N)nc23)c1`
(A) < 50%

(Q) Identify inhibition at 0.1 µM associated with the compound `C=CC(=O)Nc1cccc(-c2cc(-c3ccc(C(=O)Nc4ccccn4)cc3C#N)cc3cncnc23)c1`
(A) > 50%

(Q) Identify inhibition at 0.1 µM associated with the compound C=CC(=O)N1CCC(c2cc(-c3ccc(C(=O)Nc4cc(C5CC5)ccn4)c(F)c3)n3cnccc23)C1 (centres unmarked)
(A) < 50%

(Q) Identify inhibition at 0.1 µM associated with the compound `C=CC(=O)Nc1cccc(-c2cc(-c3ccc(C)nc3)cc3cnc(N)nc23)c1`
(A) > 50%

(Q) Identify inhibition at 0.1 µM associated with the compound `C=CC(=O)Nc1cccc(-c2cc(-c3ccc(Nc4cccc(C(F)(F)F)c4)cc3)cc3cncnc23)c1`
(A) < 50%
